# runDescription: protein stability index of a GFP-peptide fusion (GPS, HEK-293T) (PSI 1-6); higher = more stable;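 also: 24-mer peptide tiles fused after GFP, lentivirally expressed, FACS-sorted into six equal bins by GFP/DsRed ratio, decoded by Illumina sequencing, PSI is the read-weighted mean bin number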
# experimentalParameters: treatment: MLN4924 1 uM, 8 h; c terminus: a fixed tail appended
As shown below, each of these sequences has a reported protein stability index value.

seqText	protein stability index
EIVSIWILSFILAIPEAIGFVMVP [EDNRA]	3.03
ARAFAEKNGLSFIETSALDSTNVE [RAB11A]	4.24
MDDDFGVVKEEISDDNAKLPCFNG [DVL3]	5.21
DETIGFEDILNDPSQSEVMGEPHL [POMP]	5.46
QELDIKKNERLWLLDDSKTWWRVR [NCK2]	2.61
FKDEWTQLDMFYRNWALKESFIKA [AASDHPPT]	2.22
TTISYLPHAPPFAGGHPAQLGLGR [JUNB]	2.61
GSALTFREEQCAAYNHRTDLFKSF [ADAMTS4]	2.88
VTVLEDLEKGLEPEPQVPGPAHGP [ZNF232]	4.87

###

# runDescription: protein stability index of a GFP-peptide fusion (GPS, HEK-293T) (PSI 1-6); higher = more stable
# experimentalParameters: treatment: MLN4924 1 uM, 8 h; c terminus: a fixed tail appended
Answer not fulfilled if protein stability index is under 3, and fulfilled if it is 3 or more.

seqText	answerLabel
TACLTDRGIIMTFGSGSNGCLGHG [NEK8]	not fulfilled
CLKKFNARRKLKGAILTTMLATRN [CAMK2A]	fulfilled
QLEKPPEKEEDHAPEFIKVRENLR [FAM107A]	fulfilled
TPLTFTKVSEGQADIMISFVRGDH [MMP1]	not fulfilled
MEEMEEELKCPVCGSFYREPIILP [TRIM9]	fulfilled
ILTADLYSLFVGLFLFGYKFSGLY [SLC35F2]	fulfilled
RGLEPGKGRHHRGRGGEPRAYFMS [CHGB]	fulfilled
RGPPPRSGGPPPKRSAPSGPVRSS [RBMX]	fulfilled
FLKEYFPIEVVTEGLLNTYQELLG [NLN]	not fulfilled
KRCINLWKYALDMQQSNLDPLSPM [FEM1C]	not fulfilled
FQEWEAHRNLSQLPNFAFSVPLAY [TCF25]	not fulfilled
TPISNEVEMESEEQIAERKRKMVS [KMT2E]	fulfilled
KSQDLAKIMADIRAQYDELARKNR [KRT18]	fulfilled
LEPSTPYRFLLYGLHEGKRLGPLS [TNXB]	not fulfilled
HHFFCDIAPVLKLASHHNHFSQIV [OR10K2]	not fulfilled
HTPGTPKSAILVPSEKKVAIIRTP [MAP2]	fulfilled
EMSLPEVQKDKYPEEFSLLKLQTK [SPATS1]	fulfilled
KKKYMPYNHQHKYFFLIGPPALLP [FADS1]	not fulfilled
PPARGTLKTSNLPEELRKVFITYS [TRAF3IP2]	not fulfilled

###

# runDescription: protein stability index of a GFP-peptide fusion (GPS, HEK-293T) (PSI 1-6); higher = more stable
# experimentalParameters: treatment: MLN4924 1 uM, 8 h; c terminus: a fixed tail appended
propertyLabel: protein stability index

seqText	numericReadout
DCCQVSAPNRFFQKLNVFKNFIGL [NLN]	2.17
LSFSDALLSIIATVMILPVTHTEI [TMEM175]	2.88
YPSLQAMGWFNNEVGSMKIQSGAW [CRYBA1]	2.45
GMLDVADESLTDLEAQPYEAVFLR [P3H4]	4.19
LEEVAVQQTGDDDEVDDFEDFIFS [PBXIP1]	5.41
LDQPAFQQLVSFSESGSLGNSSGS [ISL2]	4.56
YDLWASDNPLDRPLVGQDEFFLEQ [NOP53]	3.69
QGDPAFPEMNGNGAVAPMDFTTAA [NOL4L]	4.98
NSPGAYRSHPDNAIPIKSWFSDPS [CTDNEP1]	3.4
GDWAPPPEGGMEQALAGASSGREL [ZNF263]	5.37
LRSPRKFGVAGRSCQEVLRKGCLR [DFFB]	2.74
LQISEELLSRNQLSTAASLGPSGL [LCOR]	3.35
PSFCPVQPCFFQDISMEIPQEFQK [SCAMP3]	3.69
VEKFIYENHPDVFSDSSMDHFQKF [MYOZ1]	3.09
RAINLLFDIARIERCNQLLRALKL [ZER1]	2.08
SLHCLLDQFDKDLPVYLKKDPAYF [DENND6A]	2.23
VVQDSVNISGHTNTNTLKVPECRL [SPOPL]	3.56
LSLHVKSLGASPTVAGIVGSSYGI [MFSD9]	2.42
PPDKGEEQVNFCESSNDFGPYEGG [ZBTB22]	5.41
LERLAYLHARLRELLCELGRPSMV [PRAME]	2.3
VCNINKGCGYGCQLHHVVYCFMIA [FUT8]	3.2
LSVLQIAQQDLAPDPDAWLRALGE [FANCE]	2.75
ERVDGRRLVYKFGKNSSGWKEEEV [ELF3]	4.39
INILQNEKSHQVLAQLLDTLLAIG [INTS4]	2.17
NRYGDVPCLDQTRVKLTKRSGHTQ [PTPN9]	4.36
NFVRERTLDKRWRVRKEAMMGLAQ [PDS5B]	2.83
VSDDLSSEEDGEARTQMILLRRSV [PHTF1]	5.08
TFPSGSGAHFPQVPGGAVRVAAAA [PI4K2A]	3.81
FIYSLKQMLLNVEANSAKVQEDLE [FSD1]	2.38
ESRYTSDYFISYGIEHAQCVPPSE [ETS1]	3.5
HKIKHKHILAKNYFSQVPVLASFI [IQUB]	2.32
NLLQYVRMPLLTPRYITDVIDAEP [KLHL12]	2.33
CEEQKCEEEVFPLAMNYLDRFLAG [CCND2]	4.05
AGGGSQENLDNDTETDSLVSAQRE [DVL3]	5.65
YGFSLKTVQGKKGVYMTDITPQGV [PDZK1]	2.5
VAQRSGCEERWLVIDRKVYNISEF [FADS1]	2.12
HLEEPGETQNAFLNERKQASAIKK [CHGB]	5.2

###

# runDescription: protein stability index of a GFP-peptide fusion (GPS, HEK-293T) (PSI 1-6); higher = more stable
# experimentalParameters: treatment: DMSO; c terminus: a fixed tail appended
Answer false (0) if protein stability index is under 3, and true (1) if it is 3 or more.

seqText	answerLabel
KLPLPSTLRSHLKSFSMAKGLNAR [RAB40A]	false (0)
DAKDELEERLERCMSIVTSMTAGV [INTS3]	true (1)
SFVLSSLQLGEGVEFDVLPAFDAL [OAS1]	false (0)
QYESIAAKNLQEAEEWYKSKYADL [PRPH]	true (1)
EVIPYTPAMQRYVKRLHEVGRTEP [HMOX1]	true (1)
KFLPSSEEDNDDAKILPSPVQGSS [DRICH1]	true (1)
FDVKNDRYIVNGSHEANKLQDMLD [EIF5]	true (1)
MGGAVSAGEDNDELIDNLKEAQYI [PCMTD2]	true (1)
HFSRLCGPESPPPPYSRLSPRDEY [SMAD6]	true (1)

###

# runDescription: protein stability index of a GFP-peptide fusion (GPS, HEK-293T) (PSI 1-6); higher = more stable
# experimentalParameters: treatment: DMSO; c terminus: a fixed tail appended
propertyLabel: protein stability index

seqText	propertyLabel	numericReadout
WVYKNKLIFFGGYGYLPEDKVLGT [KLHDC2]	protein stability index	2.55
NRERVVSLIEDLQRELEIPEQQVD [ZNF449]	protein stability index	5.13
LDNCVEVGRIANTYNLTEVDKYVN [KLHL13]	protein stability index	4.12
GSRPACQLQVPTLRQQCAQVLRNN [ELOA2]	protein stability index	4.43
PFVCPECGQPCSQKSGLIRHQKIH [ZNF649]	protein stability index	4.65
VAVESMEPNNIVVLLQTSPYHVDS [TCF25]	protein stability index	2.28
MQEFFGLKVTGKPDAETLKVMKQP [MMP1]	protein stability index	3.47
KLKLTNNHLDPFGHIILNSMHKYQ [TBX5]	protein stability index	2.26
KYLKVPQDPLKFYKKIYFCHSCQL [IQUB]	protein stability index	2.24
LVWIRGPGFGCKAVRCASGRCTVR [SDE2]	protein stability index	2.37
QFCAQRFGRKDHLTRHTKKTHSQE [PLAGL1]	protein stability index	4.07
EAQISDPFAPEPTPPTTTAEIATA [SNAP91]	protein stability index	5.42
LFIILQVGLNTIADLWYLFGDLSL [POMT2]	protein stability index	3.06
PPSARHRAHPPQRPASSGGAHTLV [KCNA3]	protein stability index	4.06
RDLKTQNILLDKHRMVVKIGDFGI [NEK8]	protein stability index	2.24
KYDPHTGHWTNVTPMATKRSGAGV [KLHL12]	protein stability index	3.69
FQEWEAHRNLSQLPNFAFSVPLAY [TCF25]	protein stability index	2.73
LEEVAVQQTGDDDEVDDFEDFIFS [PBXIP1]	protein stability index	5.43
GNAKGKILVLKTDSQDLVASFRVT [RBBP5]	protein stability index	2.17
NMERIMKAQALRDNSTMGYMMAKK [HSP90AB1]	protein stability index	3.38
SRGYAYRDNGHSNRDEHSSRGYRN [RBMY1A1]	protein stability index	4.31
FAKLEKLTILAKRKSLFDDKAVEI [STX5]	protein stability index	2.47
RASQREYEELRNSERAEVQRLEEQ [RSPH3]	protein stability index	5.43
ATRSIQVDGKTIKAQIWDTAGQER [RAB11A]	protein stability index	4.28
RPQPWLEKEIEEATKKLGFKHPVI [FUT8]	protein stability index	3.64
VTIPAGATHILVRQQGNPGHRSIY [ADAMTS4]	protein stability index	2.51
NGRACEMNGEECAEDLRMLDASGE [IKZF1]	protein stability index	5.07
EIHSKTTAYSRLNETQPIDLSGLP [RNF180]	protein stability index	3.6
ARDCFATGRHYWEVDVQEAGAGWW [TRIM14]	protein stability index	2.42
VPPGDYLFQVVINPNFEVAESDYS [LOXL2]	protein stability index	2.31
ELKEKEATLCLEFLLQNDANPSIR [ANKRD44]	protein stability index	3.19
LPPCLLPLSPPTAPDRATAVATAS [TRIB3]	protein stability index	4.45
QQKQQIMAALNSQTAVQFQQYAAQ [ACBD3]	protein stability index	3.21
MGSGTSTQHHFAFQNAERAFKAAA [PPEF2]	protein stability index	3.46
GQGAMFRLPTDSHFPYDLHLRSQS [NEUROD6]	protein stability index	3.02
RVLHDFGLDGYRGYSLADWVCLAY [SPACA3]	protein stability index	2.2
RVTVSRASSSRSVRTTRGKRKRVD [LMNB1]	protein stability index	4.46
SAFSSRGSLSLSFEREPSTSDLGT [RIPK4]	protein stability index	4.01
HTTRSSLRGPRERAPSERSGPAAS [DVL3]	protein stability index	5.15
GIRKEDLDIVCERFTTSKLQSFED [MLH1]	protein stability index	3.6
PDFPSINMDPAGLDDEDDTSIGMP [RETREG3]	protein stability index	5.49
SMPSYSSCTVTTVQPMDRLPYQHF [TBX5]	protein stability index	2.56
